System: CDKL2
conditions: concentration: 1 μM, replicates: in singlicate; n = 1;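 note: KINOMEscan kinase panel screen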
measurementType: %Inh (%)

# compound, measurementType, valueReported
records = [
    ("O=C(NCCNc1ccnc(Nc2ccc(F)cc2)n1)Nc1ccccc1F", "%Inh", 15),
    ("Nc1nccc(-c2c(-c3ccc(F)cc3)ncn2C2CCN(CC(F)(F)F)CC2)n1", "%Inh", 11),
    ("COc1cc2ncn(-c3cc(OCc4sccc4Cl)c(C(N)=O)s3)c2cc1OC", "%Inh", 33),
    ("O=C1NC(=O)C(N2CCc3ccccc32)=C1c1cccc(Cl)c1", "%Inh", 11),
    ("Cc1nnc(-c2ccc3ncc(-c4ccc(S(C)=O)cc4)n3c2)o1 (centres unmarked)", "%Inh", 4),
]

###

Tested on: HUNK
conditions: concentration: 1 μM, replicates: in singlicate; n = 1
The label Condition met is reserved for %Inh strictly under 20%; Condition not met covers values equal to or above it.

# structureSmiles, label
rows = [
    ("CCCCCc1nc2c(N)ncnc2n1CCCCC", "Condition not met"),
    ("NS(=O)(=O)CCc1cccc(Nc2nccc(-c3c(-c4cccc(NC(=O)c5c(F)cccc5F)c4)nn4ccccc34)n2)c1", "Condition met"),
    ("COc1ccc(Nc2ncc(C#N)c(Nc3ccccc3C(N)=O)n2)cc1N1CCN(C)CC1.Cl", "Condition met"),
    ("O=C(NCCNc1ccnc(Nc2ccc(F)cc2)n1)c1cc2ccccc2s1", "Condition met"),
    ("CCc1ccnc(/C=C/c2n[nH]c3cc(Sc4ccccc4C(=O)NC)ccc23)c1", "Condition met"),
    ("CC(C)(C)n1cnc2c(N)ncnc21", "Condition met"),
    ("N#Cc1c(N2CCOCC2)sc(-c2ccn[nH]2)c1-c1ccc(Cl)cc1", "Condition met"),
    ("Cn1ccc2ncnc(Oc3ccc(NC(=O)Nc4ccncc4)c(Cl)c3)c21", "Condition met"),
    ("CC(=O)Nc1ccc(COc2ccc(Nc3ccnc4cc(-c5ccccn5)ccc34)cc2)cc1.Cl", "Condition not met"),
]

###

Tested on: ULK1
conditions: concentration: 1 μM, replicates: in singlicate; n = 1
We use 1% as the dividing line for %Inh: on or above the line is Met, below is Not met.

# compound, label
rows = [
    ("O=C(NOCC1CC1)c1ccc(F)c(F)c1Nc1ccc(I)cc1Cl", "Not met"),
    ("N#Cc1ccc(-c2cc(-c3c[nH]nc3-c3ccccn3)ccn2)cc1 [GW693028]", "Met"),
    ("O=c1cc(N2CCOCC2)nc2n(Cc3cccc(Cl)c3Cl)c(C3CC3)nn12 [GSK2358994]", "Not met"),
    ("[2H]C([2H])(c1cccc(C(F)(F)F)c1C)n1ccn2c(=O)nc(N3CCOCC3)cc12 [GSK2336394]", "Not met"),
    ("Cc1ccc(NC(=O)c2ccnc(N3CCN(C)CC3)c2)cc1-c1ccc(C(=O)NCC2CC2)cc1 [GW775604]", "Not met"),
    ("Nc1nccc(-c2c(-c3ccc(F)cc3)ncn2C2CCN(CC(F)(F)F)CC2)n1 [SB-236560]", "Not met"),
    ("Cl.Oc1cccc(Nc2ccnc3cc(-c4ccncc4)ccc23)c1 [GW494601]", "Not met"),
    ("CN1c2ccc(NCc3ccc(F)cc3)cc2-c2c(cnn2C)S1(=O)=O", "Not met"),
    ("Cc1nnc(-c2ccc3ncc(-c4ccc(S(C)=O)cc4)n3c2)o1 (stereo not drawn)", "Met"),
    ("CCn1cnc2c(N)ncnc21 [GW345098]", "Not met"),
    ("O=C(Nc1cccc(-c2nn3ncccc3c2-c2ccnc(Nc3cccc(C(F)(F)F)c3)n2)c1)c1c(F)cccc1F [GSK299495]", "Not met"),
    ("N#Cc1c(N2CCOCC2)sc(-c2ccn[nH]2)c1-c1ccc(Cl)cc1", "Met"),
    ("NS(=O)(=O)c1cccc(-c2ccc3nccc(-c4cccc(S(N)(=O)=O)c4)c3c2)c1 [GW867253]", "Met"),
    ("COc1ccc(CNC(=O)NC2CCN(c3ccnc(Nc4ccc(OC)cc4)n3)C2)cc1 (stereo not drawn) [GSK1379727]", "Not met"),
    ("COc1ccc(S(=O)(=O)NC2CCN(c3cc(C)nc(Nc4cccc(C#N)c4)n3)CC2)cc1.O=C(O)C(F)(F)F [GSK1653539]", "Not met"),
    ("Cc1cn2c(=O)cc(N3CCOCC3)nc2n1Cc1cccc(Cl)c1Cl [GSK2334006]", "Not met"),
    ("CSc1ccc(-c2cc3ncnc(SCC(=O)O)c3s2)cc1", "Not met"),
    ("O=C(Nc1n[nH]c2cc(-c3cccc(F)c3)ccc12)C1CC1 [SB-735464]", "Met"),
    ("O=c1cc(N2CCOCC2)nc2n(Cc3cccc(F)c3)ccn12 [GSK2297430]", "Not met"),
    ("O=c1cc(N2CCOCC2)nc2n(Cc3cccc4ccccc34)ccn12 [GSK2333389]", "Met"),
    ("COc1ccc(Nc2nccc(N3CCC(NC(=O)Nc4cccc(C(C)=O)c4)C3)n2)cc1 (stereo not drawn) [GSK1379731]", "Met"),
    ("Cc1cccc(Cn2ccn3c(=O)cc(N4CCOCC4)nc23)c1 [GSK2297542]", "Met"),
    ("COCCNC(=O)c1ccc(-c2cc(C(=O)NC3CC3)cc(F)c2C)cc1 [GW868318]", "Met"),
    ("CCc1ccnc(/C=C/c2n[nH]c3cc(Sc4ccccc4C(=O)NC)ccc23)c1", "Met"),
    ("Cc1c(Cn2c(C)nn3c(=O)cc(N4CCOC(C)C4)nc23)cccc1C(F)(F)F (stereo not drawn) [GSK2344444]", "Met"),
    ("CC(=O)Nc1ccc(COc2ccc(Nc3ccnc4cc(-c5ccccn5)ccc34)cc2)cc1.Cl [GW440148]", "Not met"),
    ("COc1cc2c(cc1OC[C@@H](O)CO)ncc1c3ccc(C#N)cc3[nH]c21", "Met"),
    ("Cc1ccc(C(=O)NCC(N)=O)cc1-n1c(C)cc(OCc2ccc(F)cc2F)c(Br)c1=O", "Not met"),
    ("Cc1cccc(-c2nc(Nc3ccc4ncsc4c3)c3ccccc3n2)n1 [GW867588]", "Met"),
    ("CC(C)(C)n1cnc2c(N)ncnc21 [SKF-97359]", "Not met"),
    ("CN(C(=O)c1ccc(-c2cc(-c3c[nH]nc3-c3ccccn3)ccn2)cc1)C1CCOCC1 [GW810083]", "Met"),
    ("CC(C)Oc1ccc2c(-c3ccnc(Nc4ccc(N5CCN(C)CC5)cc4)n3)cnn2n1 [GW696155]", "Met"),
    ("COc1cc2ncn(-c3cc(OCc4sccc4Cl)c(C(N)=O)s3)c2cc1OC [GSK448459]", "Met"),
    ("O=C(NCCNc1ccnc(Nc2ccc(F)cc2)n1)Nc1ccccc1F [GSK1379880]", "Met"),
]
